Target: T1, mouse SPNS2 (mouse, UniProt Q91VM4 1-549)
T1 construct: on Flp-in 293 cells that also express human SphK1
T1 sequence: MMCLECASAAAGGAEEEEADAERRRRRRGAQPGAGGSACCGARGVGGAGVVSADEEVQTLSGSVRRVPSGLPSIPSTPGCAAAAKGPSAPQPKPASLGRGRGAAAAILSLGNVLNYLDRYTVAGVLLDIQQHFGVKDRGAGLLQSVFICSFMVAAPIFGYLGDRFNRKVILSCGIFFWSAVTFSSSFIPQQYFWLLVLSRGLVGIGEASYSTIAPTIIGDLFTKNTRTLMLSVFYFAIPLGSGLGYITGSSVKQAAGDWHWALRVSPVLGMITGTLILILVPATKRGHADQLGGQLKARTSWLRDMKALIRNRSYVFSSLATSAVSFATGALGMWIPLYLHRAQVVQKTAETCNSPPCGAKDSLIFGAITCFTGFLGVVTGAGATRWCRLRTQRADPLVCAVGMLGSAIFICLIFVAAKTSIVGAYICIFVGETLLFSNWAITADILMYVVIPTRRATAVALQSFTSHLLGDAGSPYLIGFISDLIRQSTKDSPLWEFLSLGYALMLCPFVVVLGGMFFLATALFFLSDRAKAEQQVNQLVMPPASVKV
Assay: Cell ELISA
Assign pEC50 to each entry below.

Examples with their reported pEC50 follow.
49-0703G (antibody, IgG2b, V domains shown) VH: EVQLVESGGGLVQPGRSMKLSCAASGFTFSNHYMAWVRQAPTKGLEWVASISTGGGNTYYRDSVKGRFTISRDNAKSTLYLQMDSLRSEDTATYYCARQDYSNYMGGFAYWGQGTLVTVSS VL: QFVLTQPNSVSTNLGSTVKLSCKRSTGNIGNNYVNWYQQYEGRSPTTMIYRDDERPDGVPDRFSGSIDRSSNSALLTINNVQTEDEADYFCQSFSNGMFIFAGGTQLTVL	8.09 pEC50 (M)
96-1403F (antibody, IgG2b, V domains shown) VH: EVQLVETGGGLVRPGSSLKLSCATSGFTFSDTWMSWVRQAPGKGLEWVALIKDKNSNSEANYAESIKGRFTISRDDSKSRVYLQMNTLRDQDTATYYCTRHEDFYYYSGYYFDYWGQGVMVTVSS VL: DIVLTQSPPTLSVTPGESVSLSCRASQGISTSIHWYQQRSNESPRLLIKYASQSIAGIPSRFSGSGSGTDFILSINRVESEDFSVYYCQQTYSLPLTFGPGTKLEVKR	7.42 pEC50 (M)

Look up pEC50: 83-1110B (antibody, IgG2b, V domains shown) VH: EVQLQQSGPEFVRPGTSVKFSCKVSGGSITSYFIHFVKQRPGQGLEWIGKIDPEDDSTKYGEKFKNKATLTADTSSNTAFLKLSSLTSEDTAIYFCTTLTGLDYWGQGVMVTVSS VL: DIQMTQSPPVLSAAVGDRVTLSCKASRSLNKNLDWYQQKHGETPKLLIYHTHNLQTGIPSRFSGSGSDTDYTLTISSLQTEDVATYYCYQYHSGWTFGGGTRLELRR
8.17 pEC50 (M)
